Data provenance is ChEMBL document CHEMBL3286357.

# EXPERIMENT: Antiproliferative activity against human Hep3B cells at 1.23 ug/ml for 24 hrs by MTT assay
# Format: functional, Hep 3B2
The class of a record is decided solely by its measured inhibition at 1.23 µg/mL; consult 1 = under 10%, 2 = from 10% up to 20%, 3 = 20% and over

COMPOUND	CLASS_ASSIGNMENT
Cc1c(C(=O)Nc2ccc(-c3ccccc3)cc2)nc2ccccc2c1O	2
Cc1c(C(=O)Nc2c(F)cc(-c3cccc(F)c3)cc2F)nc2ccc(F)cc2c1C(=O)O	1
Cc1c(C(=O)Nc2c(F)cc(-c3cccc(F)c3)cc2F)nc2ccc(OC(F)(F)F)cc2c1C(=O)O	3

Which of the defined bands does the recorded inhibition at 1.23 µg/mL of COc1cccc2c1C(=O)c1c(O)c3c(c(O)c1C2=O)C[C@@](O)(C(=O)CO)C[C@@H]3O[C@H]1C[C@H](N)[C@H](O)[C@H](C)O1 sit within?
2

Each compound maps to one class by inhibition at 1.23 µg/mL. Which class for Cc1c(C(=O)Nc2c(F)cc(-c3cccc(F)c3)cc2F)nc2ccc(OC(F)(F)F)cc2c1O ?
2

Which band does CCc1ccc2nc(C(=O)Nc3c(F)cc(-c4cccc(F)c4)cc3F)c(C)c(O)c2c1 fall in?
3

Textbook exercise: identify the category of the compound given here, CCOc1ccc2nc(C(=O)Nc3c(F)cc(-c4cccc(F)c4)cc3F)c(C)c(O)c2c1 , according to its measured value.
1

For the record CCc1ccc2nc(C(=O)Nc3c(F)cc(-c4cccc(F)c4)cc3F)c(C)c(C(=O)O)c2c1 , report the class its inhibition at 1.23 µg/mL corresponds to.
1

Which class does Cc1ccc2nc(C(=O)Nc3c(F)cc(-c4cccc(F)c4)cc3F)c(C)c(O)c2c1 fall in?
2

Category of COc1ccc2nc(C(=O)Nc3ccc(-c4ccccc4)cc3)c(C)c(C(=O)O)c2c1 , please.
2

For the record Cc1c(C(=O)Nc2c(F)cc(-c3cccc(F)c3)cc2F)nc2ccc(C(F)(F)F)cc2c1O , report the class its inhibition at 1.23 µg/mL corresponds to.
2

Which inhibition at 1.23 µg/mL band matches Cc1c(-c2ccc(-c3ccccc3F)cc2)nc2ccc(F)cc2c1C(=O)O [BREQUINAR SODIUM] ?
3

Hi, small favor: classify COc1ccc2nc(C(=O)Nc3ccc(-c4ccccc4)cc3)c(C)c(O)c2c1 by its inhibition at 1.23 µg/mL when you get a moment.
2

Assign a bin to Cc1c(C(=O)Nc2c(F)cc(-c3cccc(F)c3)cc2F)nc2ccc(C(F)(F)F)cc2c1C(=O)O
2

The entry to classify is CCOc1ccc2nc(C(=O)Nc3c(F)cc(-c4cccc(F)c4)cc3F)c(C)c(C(=O)O)c2c1 ; which class holds it?
2

Input COc1ccc2nc(C(=O)Nc3c(F)cc(-c4cccc(F)c4)cc3F)c(C)c(C(=O)O)c2c1 ; output its category
1

---

# Test system: A-375
# EXPERIMENT: Antiproliferative activity against human A375 cells at 0.41 ug/ml for 24 hrs by MTT assay
# Format: functional
# CONDITION_PARAMETERS: A-375, 24 h
PROPERTY_LABEL: inhibition at 0.41 µg/mL (%)
Respond with the bare value in %.

Below, each entry is followed by its recorded inhibition at 0.41 µg/mL result.
MOLECULE	REPORTED_RESULT
COc1cccc2c1C(=O)c1c(O)c3c(c(O)c1C2=O)C[C@@](O)(C(=O)CO)C[C@@H]3O[C@H]1C[C@H](N)[C@H](O)[C@H](C)O1	-12.5
Cc1ccc2nc(C(=O)Nc3c(F)cc(-c4cccc(F)c4)cc3F)c(C)c(C(=O)O)c2c1	1.53

Would you mind telling me what inhibition at 0.41 µg/mL value was observed for Cc1c(C(=O)Nc2ccc(-c3ccccc3)cc2)nc2ccccc2c1C(=O)O ?
2.38

Which inhibition at 0.41 µg/mL is listed for Cc1c(C(=O)Nc2c(F)cc(-c3cccc(F)c3)cc2F)nc2ccc(C(F)(F)F)cc2c1O ?
16.5

Please look up its inhibition at 0.41 µg/mL: CCc1ccc2nc(C(=O)Nc3c(F)cc(-c4cccc(F)c4)cc3F)c(C)c(C(=O)O)c2c1
6.12

Can you look up the measured inhibition at 0.41 µg/mL of CCc1ccc2nc(C(=O)Nc3c(F)cc(-c4cccc(F)c4)cc3F)c(C)c(O)c2c1 for me?
3.56

// query inhibition at 0.41 µg/mL value for entry Cc1c(C(=O)Nc2ccc(-c3ccccc3)cc2)nc2ccccc2c1O
2.65

Request the reported inhibition at 0.41 µg/mL associated with Cc1c(C(=O)Nc2c(F)cc(-c3cccc(F)c3)cc2F)nc2ccc(F)cc2c1O
0.86

# input molecule: Cc1ccc2nc(C(=O)Nc3c(F)cc(-c4cccc(F)c4)cc3F)c(C)c(O)c2c1 ; wanted: its inhibition at 0.41 µg/mL
1.35

Data request, read-out inhibition at 0.41 µg/mL, for COc1ccc2nc(C(=O)Nc3ccc(-c4ccccc4)cc3)c(C)c(O)c2c1
7.62

---

# Test system: A-375
# EXPERIMENT: Antiproliferative activity against human A375 cells at 33.33 ug/ml for 24 hrs by MTT assay
# Assay type: functional
# CONDITION_PARAMETERS: A-375, 24 h
PROPERTY_LABEL: inhibition at 33.33 µg/mL (%)
Express your answer in %, writing the number without its unit.

CCc1ccc2nc(C(=O)Nc3c(F)cc(-c4cccc(F)c4)cc3F)c(C)c(C(=O)O)c2c1 47.1
Cc1c(C(=O)Nc2c(F)cc(-c3cccc(F)c3)cc2F)nc2ccc(OC(F)(F)F)cc2c1C(=O)O 53.1

Consider the compound COc1ccc2nc(C(=O)Nc3c(F)cc(-c4cccc(F)c4)cc3F)c(C)c(O)c2c1 and give its measured inhibition at 33.33 µg/mL.
64.9

// inhibition at 33.33 µg/mL lookup, key: COc1ccc2nc(C(=O)Nc3c(F)cc(-c4cccc(F)c4)cc3F)c(C)c(C(=O)O)c2c1
44.5

Quick check: inhibition at 33.33 µg/mL of CCOc1ccc2nc(C(=O)Nc3c(F)cc(-c4cccc(F)c4)cc3F)c(C)c(C(=O)O)c2c1 ?
51.2

Given the entry Cc1ccc2nc(C(=O)Nc3c(F)cc(-c4cccc(F)c4)cc3F)c(C)c(C(=O)O)c2c1 , report its measured inhibition at 33.33 µg/mL.
26.3

May I ask what inhibition at 33.33 µg/mL has been recorded for Cc1c(C(=O)Nc2c(F)cc(-c3cccc(F)c3)cc2F)nc2ccc(F)cc2c1C(=O)O ?
41.3

Which inhibition at 33.33 µg/mL is listed for Cc1c(C(=O)Nc2c(F)cc(-c3cccc(F)c3)cc2F)nc2ccc(C(F)(F)F)cc2c1C(=O)O ?
51

Please give the measured inhibition at 33.33 µg/mL for this compound: CCc1ccc2nc(C(=O)Nc3c(F)cc(-c4cccc(F)c4)cc3F)c(C)c(O)c2c1
28.4

Fill in: inhibition at 33.33 µg/mL of COc1ccc2nc(C(=O)Nc3ccc(-c4ccccc4)cc3)c(C)c(O)c2c1 is ___
46.2

What value of inhibition at 33.33 µg/mL has been reported for the following compound? COc1cccc2c1C(=O)c1c(O)c3c(c(O)c1C2=O)C[C@@](O)(C(=O)CO)C[C@@H]3O[C@H]1C[C@H](N)[C@H](O)[C@H](C)O1
69.9

---

# EXPERIMENT: Antiproliferative activity against human Hep3B cells at 0.05 ug/ml for 24 hrs by MTT assay
# Assay type: functional, Hep 3B2
Catalogue of inhibition at 0.05 µg/mL values
The reply should contain only the number, in %.

Guide cases for inhibition at 0.05 µg/mL, answers given:
MOLECULE	REPORTED_RESULT
CCOc1ccc2nc(C(=O)Nc3c(F)cc(-c4cccc(F)c4)cc3F)c(C)c(O)c2c1	-0.04
Cc1c(C(=O)Nc2ccc(-c3ccccc3)cc2)nc2ccccc2c1C(=O)O	-0.12

Please turn your attention to the following entry.
Could you tell me which inhibition at 0.05 µg/mL is on file for Cc1ccc2nc(C(=O)Nc3c(F)cc(-c4cccc(F)c4)cc3F)c(C)c(O)c2c1 ?
1.52

---

Overview of recorded pIC50 for various compounds
# Tested on: A-375 (human melanoma)
# EXPERIMENT: Antiproliferative activity against human A375 cells for 24 hrs by MTT assay
# CONDITION_PARAMETERS: A-375, 24 h
Scale note: pIC50 = -log10(concentration in M).

Known results for compounds:
COMPOUND	PROPERTY_LABEL	REPORTED_RESULT
Cc1c(C(=O)Nc2c(F)cc(-c3cccc(F)c3)cc2F)nc2ccc(OC(F)(F)F)cc2c1C(=O)O	pIC50	5.32
COc1ccc2nc(C(=O)Nc3c(F)cc(-c4cccc(F)c4)cc3F)c(C)c(C(=O)O)c2c1	pIC50	4.84
COc1ccc2nc(C(=O)Nc3c(F)cc(-c4cccc(F)c4)cc3F)c(C)c(O)c2c1	pIC50	5.30
Cc1c(C(=O)Nc2ccc(-c3ccccc3)cc2)nc2ccccc2c1O	pIC50	4.43
COc1ccc2nc(C(=O)Nc3ccc(-c4ccccc4)cc3)c(C)c(C(=O)O)c2c1	pIC50	5.03
Cc1c(-c2ccc(-c3ccccc3F)cc2)nc2ccc(F)cc2c1C(=O)O [BREQUINAR SODIUM]	pIC50	4.99
CCc1ccc2nc(C(=O)Nc3c(F)cc(-c4cccc(F)c4)cc3F)c(C)c(C(=O)O)c2c1	pIC50	4.77
CCc1ccc2nc(C(=O)Nc3c(F)cc(-c4cccc(F)c4)cc3F)c(C)c(O)c2c1	pIC50	4.80
Cc1c(C(=O)Nc2c(F)cc(-c3cccc(F)c3)cc2F)nc2ccc(C(F)(F)F)cc2c1O	pIC50	4.52
Cc1c(C(=O)Nc2c(F)cc(-c3cccc(F)c3)cc2F)nc2ccc(F)cc2c1C(=O)O	pIC50	4.83

Query: pIC50; subject: COc1cccc2c1C(=O)c1c(O)c3c(c(O)c1C2=O)C[C@@](O)(C(=O)CO)C[C@@H]3O[C@H]1C[C@H](N)[C@H](O)[C@H](C)O1
4.88

Name the recorded pIC50 for Cc1c(C(=O)Nc2c(F)cc(-c3cccc(F)c3)cc2F)nc2ccc(OC(F)(F)F)cc2c1O .
4.07

Can you share its pIC50? I mean this compound: Cc1ccc2nc(C(=O)Nc3c(F)cc(-c4cccc(F)c4)cc3F)c(C)c(C(=O)O)c2c1
4.50

Which pIC50 is listed for COc1ccc2nc(C(=O)Nc3ccc(-c4ccccc4)cc3)c(C)c(O)c2c1 ?
4.74
